Hello, the source for this data is PubChem BioAssay AID449765, in case you need it.

molecular target: Muscarinic acetylcholine receptor M4 (Homo sapiens) (UniProt P08173); assay: potentiation of EC20 ACh response at hM4 – cell-based, human M4, calcium flux, Millipore GPCR Profiler, dose response (AID 449765); details: M4-expressing cells, calcium flux fluorescence
Sequence (P08173 whole entry, looked up): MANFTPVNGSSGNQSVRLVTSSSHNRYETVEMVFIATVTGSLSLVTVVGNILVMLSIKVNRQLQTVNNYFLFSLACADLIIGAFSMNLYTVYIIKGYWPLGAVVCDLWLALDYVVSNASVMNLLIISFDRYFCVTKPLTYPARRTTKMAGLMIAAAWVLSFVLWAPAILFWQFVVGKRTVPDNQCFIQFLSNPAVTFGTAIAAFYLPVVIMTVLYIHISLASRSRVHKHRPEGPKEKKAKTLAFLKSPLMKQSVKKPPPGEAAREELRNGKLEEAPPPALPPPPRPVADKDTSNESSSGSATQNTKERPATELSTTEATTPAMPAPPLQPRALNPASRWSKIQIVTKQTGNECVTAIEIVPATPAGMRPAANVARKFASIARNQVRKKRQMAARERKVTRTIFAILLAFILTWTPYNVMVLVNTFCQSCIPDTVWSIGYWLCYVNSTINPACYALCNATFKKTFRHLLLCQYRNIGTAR
pEC50: −log10 of the molar value.
assay_readout: pEC50

INSERT INTO results (test_smiles, assay_readout, endpoint_value) VALUES
  ('COc1ccc(CNC(=O)c2sc3nc(OCc4ccncc4)cc(C)c3c2N)cc1', 'pEC50', 7.00),
  ('Cc1cc(OCCN2CCOCC2)nc2sc(C(=O)NC(C)(C)C)c(N)c12', 'pEC50', 6.72),
  ('Cc1cc(OCc2ccncc2)nc2sc(C(=O)NCc3cc(F)ccc3F)c(N)c12', 'pEC50', 6.74),
  ('Cc1cc(OCc2ccncc2)nc2sc(C(=O)NCc3cccc(F)c3F)c(N)c12', 'pEC50', 7.02);
